Origin of the recorded values: ChEMBL document CHEMBL1255219

# half-life at 50 ug/mL per entry
- TEST METHOD NOTES: Half life in simulated gastric fluid at pH 1.2 at 50 ug/mL
- Assay type: physicochemical
ASSAY READOUT: half-life at 50 ug/mL (h)

[[record]]
molecule = "COC(=O)[C@H](C)NP(=O)(OC[C@H]1O[C@@H](n2ccc(=O)[nH]c2=O)[C@](C)(F)[C@@H]1O)Oc1ccccc1 (some centres not stated)"
assay_readout = "half-life at 50 ug/mL"
reading_unit = "h"
comparison_symbol = "="
obs_value = 15.5

[[record]]
molecule = "CC(C)OC(=O)[C@H](C)NP(=O)(OC[C@H]1O[C@@H](n2ccc(=O)[nH]c2=O)[C@](C)(F)[C@@H]1O)Oc1ccccc1 (some centres not stated)"
assay_readout = "half-life at 50 ug/mL"
reading_unit = "h"
comparison_symbol = "="
obs_value = 22

[[record]]
molecule = "CC(C)OC(=O)[C@H](C)NP(=O)(OC[C@H]1O[C@@H](n2ccc(=O)[nH]c2=O)[C@](C)(F)[C@@H]1O)Oc1ccc(Cl)cc1 (some centres not stated)"
assay_readout = "half-life at 50 ug/mL"
reading_unit = "h"
comparison_symbol = ">"
obs_value = 20

[[record]]
molecule = "CCOC(=O)[C@H](C)NP(=O)(OC[C@H]1O[C@@H](n2ccc(=O)[nH]c2=O)[C@](C)(F)[C@@H]1O)Oc1ccc(F)cc1 (some centres not stated)"
assay_readout = "half-life at 50 ug/mL"
reading_unit = "h"
comparison_symbol = "="
obs_value = 17

[[record]]
molecule = "C[C@H](NP(=O)(OC[C@H]1O[C@@H](n2ccc(=O)[nH]c2=O)[C@](C)(F)[C@@H]1O)Oc1ccc(F)cc1)C(=O)OC1CCCCC1 (some centres not stated)"
assay_readout = "half-life at 50 ug/mL"
reading_unit = "h"
comparison_symbol = "="
obs_value = 20

[[record]]
molecule = "CC(C)OC(=O)[C@H](C)NP(=O)(OC[C@H]1O[C@@H](n2ccc(=O)[nH]c2=O)[C@](C)(F)[C@@H]1O)Oc1ccc(F)cc1 (some centres not stated)"
assay_readout = "half-life at 50 ug/mL"
reading_unit = "h"
comparison_symbol = ">"
obs_value = 20

[[record]]
molecule = "C[C@H](NP(=O)(OC[C@H]1O[C@@H](n2ccc(=O)[nH]c2=O)[C@](C)(F)[C@@H]1O)Oc1ccccc1)C(=O)OC1CCCCC1 (some centres not stated)"
assay_readout = "half-life at 50 ug/mL"
reading_unit = "h"
comparison_symbol = "="
obs_value = 17


----------
half-life at 100 µM values by entry
- TEST METHOD NOTES: Half life in human liver S9 fraction at 100 uM
- Assay type: ADME, subcellular
ASSAY READOUT: half-life at 100 µM (min)

[[record]]
compound = "C[C@H](NP(=O)(OC[C@H]1O[C@@H](n2ccc(=O)[nH]c2=O)[C@](C)(F)[C@@H]1O)Oc1ccccc1)C(=O)OC1CCCCC1 (some centres not stated)"
obs_value = 84

[[record]]
compound = "C[C@H](NP(=O)(OC[C@H]1O[C@@H](n2ccc(=O)[nH]c2=O)[C@](C)(F)[C@@H]1O)Oc1ccc(F)cc1)C(=O)OC1CCCCC1 (some centres not stated)"
obs_value = 10.8

[[record]]
compound = "COC(=O)[C@H](C)NP(=O)(OC[C@H]1O[C@@H](n2ccc(=O)[nH]c2=O)[C@](C)(F)[C@@H]1O)Oc1ccccc1 (some centres not stated)"
obs_value = 10.8

[[record]]
compound = "CC(C)OC(=O)[C@H](C)NP(=O)(OC[C@H]1O[C@@H](n2ccc(=O)[nH]c2=O)[C@](C)(F)[C@@H]1O)Oc1ccc(F)cc1 (some centres not stated)"
obs_value = 25.2

[[record]]
compound = "CC(C)OC(=O)[C@H](C)NP(=O)(OC[C@H]1O[C@@H](n2ccc(=O)[nH]c2=O)[C@](C)(F)[C@@H]1O)Oc1ccc(Cl)cc1 (some centres not stated)"
obs_value = 21

[[record]]
compound = "CCOC(=O)[C@H](C)NP(=O)(OC[C@H]1O[C@@H](n2ccc(=O)[nH]c2=O)[C@](C)(F)[C@@H]1O)Oc1ccc(F)cc1 (some centres not stated)"
obs_value = 13.8

[[record]]
compound = "CC(C)OC(=O)[C@H](C)NP(=O)(OC[C@H]1O[C@@H](n2ccc(=O)[nH]c2=O)[C@](C)(F)[C@@H]1O)Oc1ccccc1 (some centres not stated)"
obs_value = 34.2

